Molecular target: T1, CD79b endogenously expressed on the cell surface (malignant B cell lines, normal B cells in PBMC, CLL … (human, UniProt P40259 29-229))
T1 construct: whole, on cells; On cells CD79b stands in the B-cell receptor complex with CD79a and surface Ig; also called cell surface CD79b; endogenous CD79b
T1 sequence (looked up): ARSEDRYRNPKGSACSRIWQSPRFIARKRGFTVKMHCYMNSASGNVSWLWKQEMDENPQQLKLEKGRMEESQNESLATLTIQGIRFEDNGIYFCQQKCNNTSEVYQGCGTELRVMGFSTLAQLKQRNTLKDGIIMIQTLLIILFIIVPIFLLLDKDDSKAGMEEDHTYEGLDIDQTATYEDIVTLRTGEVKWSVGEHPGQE
Experiment: flow cytometry on a cell line expressing endogenous CD79b (not named on the sheet or in the text); MFI (PE)
reported-endpoint: EC50 (read off the curve)

Sample ch44G2 (antibody, human IgG1, kappa, V domains shown, Rabbit/human chimeric IgG1 kappa; also called chimeric 44G2) VH: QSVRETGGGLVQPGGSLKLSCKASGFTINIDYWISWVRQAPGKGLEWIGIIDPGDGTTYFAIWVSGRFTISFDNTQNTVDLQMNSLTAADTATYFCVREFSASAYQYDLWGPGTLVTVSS VL: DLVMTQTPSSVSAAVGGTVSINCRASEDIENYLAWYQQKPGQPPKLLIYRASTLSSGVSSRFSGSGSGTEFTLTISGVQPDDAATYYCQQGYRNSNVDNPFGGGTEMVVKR ; EC50 (read off the curve) observed: ~0.2 nM

For record hu44G2 (antibody, V domains shown, Humanized antibody; also called humanized 44G2) VH: EQQLVETGGGLIQPGGSLRLSCAASGFTINIDYWISWVRQAPGKGLEWIGIIDPGDGTTYFAIWVSGRFTISFDNSKNTVYLQMNSLRAEDTAVYFCVREFSASAYQYDLWGPGTLVTVSS VL: ELVMTQSPATLSVSPGERATLSCRASEDIENYLAWYQQKPGQPPRLLIYRASTLSSGVPARFSGSGSGTEFTLTISSLQSEDFAVYYCQQGYRNSNVDNPFGGGTKVEIK the listed EC50 (read off the curve) is ~0.2 nM

Lab book: EC50 (read off the curve) of ch48H10 (antibody, human IgG1, kappa, V domains shown, Rabbit/human chimeric IgG1 kappa; also called chimeric 48H10) VH: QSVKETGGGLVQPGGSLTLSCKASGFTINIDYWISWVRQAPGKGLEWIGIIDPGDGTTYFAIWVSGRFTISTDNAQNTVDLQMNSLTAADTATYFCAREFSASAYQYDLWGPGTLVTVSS VL: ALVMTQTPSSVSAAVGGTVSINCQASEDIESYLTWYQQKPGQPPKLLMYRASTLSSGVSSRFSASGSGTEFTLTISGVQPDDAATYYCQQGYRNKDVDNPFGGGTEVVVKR noted as ~0.4 nM
